Each recorded value in this set is attributed to PubChem BioAssay (NCI).

- System: SF-295 CNS
- assay_method_text: NCI tumour cell line growth inhibition, 48 h
Respond with met for TGI values of 30 µM and above, not met for values below.

Look over these answered cases.
molecule: C(/Cc1ccc2c(c1)OCO2)=N\NC1=NCCCN1
assigned_label: met
//
molecule: COc1ccc(C2CCc3cc4c(cc3/C2=N/OC(C)=O)OCO4)cc1OC (stereo not given)
assigned_label: met
//
molecule: Nc1ccc2c(c1)c(N)nn2C(=O)Nc1ccc(Cc2ccccc2)cc1
assigned_label: not met
//
molecule: CC(=O)Oc1ccc2c(c1)CC[C@@H]1C2CC[C@]2(C)C(=O)NC(=O)CC12 (stereo not given in full)
assigned_label: met
//
molecule: Cc1cc(Cl)ccc1NS(=O)(=O)c1ccc(-c2cnc(C3CC3)o2)cc1
assigned_label: not met
//
molecule: CCOP(=O)(OCC)C(C)(CC)NC(=O)C(C(F)(F)F)C(F)(F)F (stereo not given)
assigned_label: met
//
molecule: COC1(OC)c2no[n+]([O-])c2C(OC)(OC)c2c1no[n+]2[O-]
assigned_label: met
//
molecule: CC1(C)CC[C@]2(C(N)=O)CC[C@]3(C)C(=CC[C@@H]4[C@@]5(C)C/C(=C/c6ccncc6)C(=O)C(C)(C)[C@@H]5CC[C@]43C)[C@@H]2C1
assigned_label: not met
//
molecule: O=C1CN(/N=C/c2ccc(-c3ccc(F)cc3)o2)C(=O)N1
assigned_label: met
//
molecule: CCOc1ccc(C(CN2CCOCC2)C(C)=O)cc1OC (stereo not given)
assigned_label: met

Would you say C[C@]12CC[C@H](OC3CCCCO3)CC1=CC[C@@H]1C2CC[C@]2(C)/C(=N/O)CCC12 (stereo not given in full) shows TGI at minimum 30 µM?
met

Would you say C#CCN(Cc1ccc2nc(N)[nH]c(=O)c2c1)c1ccc(C(=O)NC(CCC(=O)O)C(=O)O)cc1 (stereo not given) shows TGI at minimum 30 µM?
met

Would you say CC1=NN(C(=O)c2ccccc2O)C(=O)/C1=C/c1cccc([N+](=O)[O-])c1 shows TGI at minimum 30 µM?
met

Would you say CC/C=C\C/C=C\C[C@H](O)C/C=C1/C(=O)C=C[C@@H]1C/C=C\CCCC(=O)OC shows TGI at minimum 30 µM?
not met

----------
- Test system: MDA-N
- assay_method_text: NCI tumour cell line growth inhibition, 48 h
Overview of recorded TGI for various molecules

molecule: COc1ccc2nc3n(c2c1)CCc1cc(OC)c(OC)cc1-3
target_system: MDA-N
result: > 100 µM

molecule: CC(C)OC1OC(CO)C(O)CC1n1cc(F)c(=O)[nH]c1=O (stereo not given)
target_system: MDA-N
result: > 100 µM

molecule: CCOP(=O)(OCC)C(C)(CC)NC(=O)C(C(F)(F)F)C(F)(F)F (stereo not given)
target_system: MDA-N
result: > 100 µM

Entry NC(=O)CO/N=C1/C(c2c(O)[nH]c3ccccc23)=Nc2ccccc21 has what TGI?
> 100 µM

Entry COC(=O)c1c(-c2ccc(Cl)cc2)cc2c3ccccc3n(C)c2c1C(=O)OC has what TGI?
> 100 µM

Entry CCN(CC)CCN(C(=O)C(C)(C)C)c1ccccc1N has what TGI?
> 100 µM

Entry C#CCN(Cc1ccc2nc(N)[nH]c(=O)c2c1)c1ccc(C(=O)NC(CCC(=O)O)C(=O)O)cc1 (stereo not given) has what TGI?
> 100 µM

Entry Cc1nc2ccc(Cl)cc2c2c1CCN2c1ccccc1 has what TGI?
10.1 µM

Entry Cc1ccc(/C(O)=C/c2nc3ccc([N+](=O)[O-])cc3nc2/C=C(\O)c2ccc(C)cc2)cc1 has what TGI?
> 100 µM

Entry N/C(=N\Nc1ccc(S(N)(=O)=O)cc1)c1cnccn1 has what TGI?
> 100 µM

----------
Overview of recorded TGI for various molecules
- System: KM20L2 colon
- assay_method_text: NCI tumour cell line growth inhibition, 48 h

Example entries begin here.
molecule: CN(C=O)/C=C/c1cc(O)ccc1O
TGI: > 62.4 µM
//
molecule: C/C(CC(=O)N(C(C)C)C(C)C)=N\NC(=O)c1ccncc1
TGI: > 100 µM
//
molecule: CCCCCCCCCCCCCc1nn[nH]n1
TGI: 37.4 µM

Next:
Entry CCC1CNC(=O)CC1CC(=O)OC (configuration not stated) has what TGI?
> 100 µM

----------
Overview of recorded TGI for various compounds
- Tested on: KM12 colon
- assay_method_text: NCI tumour cell line growth inhibition, 48 h

Example entries begin here.
compound: CN(C=O)/C=C/c1cc(O)ccc1O
target_system: KM12 colon
TGI: > 100 µM

compound: S=c1nc(-c2ccnc(-c3nc(=S)[nH][nH]3)c2)[nH][nH]1
target_system: KM12 colon
TGI: > 100 µM

compound: CN1C(=O)C(O)CC1c1cccc(C(F)(F)F)c1 (stereo not drawn)
target_system: KM12 colon
TGI: > 100 µM

compound: N[C@@H]1CCCC[C@@H]1N.O=P([O-])([O-])CN(CP(=O)([O-])[O-])CP(=O)([O-])[O-].[Pt+2]
target_system: KM12 colon
TGI: > 100 µM

compound: C=C(C)[C@@H]1CC[C@]2(C(=O)O)CC[C@]3(C)[C@H](CCC4[C@@]5(C)CC[C@H](C(=O)/C=C/c6ccc(O)c(O)c6)C(C)(C)[C@@H]5CC[C@]43C)[C@@H]12 (stereo partly drawn)
target_system: KM12 colon
TGI: 28.2 µM

compound: Cc1cc([N+](=O)[O-])c(C)c(Br)c1C
target_system: KM12 colon
TGI: > 100 µM

Entry CN1CCN(c2nc(-c3ccncc3)nc3sc4c(c23)CCCCCC4)CC1 has what TGI?
28 µM

Entry CC(C)(C)C1CC[C@H](O)[C@H]([C@H](O)CC2CC(=O)N(c3ccccc3)C(=O)C2)C1 (stereo partly drawn) has what TGI?
> 100 µM

Entry COC(=O)CCCC(=O)NC1=C(NCc2ccccc2)C(=O)c2ccccc2C1=O has what TGI?
> 100 µM

Entry CN(C)C(=S)Oc1ccc2ccc(=O)oc2c1 has what TGI?
> 100 µM

Entry CC1COCC(C)N1C1=C(Cl)C(=O)c2ccccc2C1=O (stereo not drawn) has what TGI?
25.4 µM

----------
- System: 786-0 renal
- assay_method_text: NCI tumour cell line growth inhibition, 48 h
recorded_endpoint: TGI (µM)
Write the answer as a number in µM, unit excluded.

Example entries begin here.
compound: Cc1ccc(S(=O)(=O)N(CC(O)COc2ccccc2)c2ccc(F)cc2F)cc1 (stereo not given)
target_system: 786-0 renal
TGI / µM: 31
--
compound: O=C(Cc1csc2nc(-c3ccc(Br)cc3)cn12)N/N=C/c1ccc(O)cc1
target_system: 786-0 renal
TGI / µM: 89
--
compound: C=C(C)[C@@H]1CC[C@]2(C(=O)O)CC[C@]3(C)[C@H](CCC4[C@@]5(C)CC[C@H](C(=O)/C=C/c6ccc(O)c(O)c6)C(C)(C)[C@@H]5CC[C@]43C)[C@@H]12 (stereo not given in full)
target_system: 786-0 renal
TGI / µM: 30.2
--
compound: CC(=O)Oc1ccc(/C=N/NC(N)=S)nc1
target_system: 786-0 renal
TGI / µM: 16.1
--
compound: CC1OC(OC2CCC3(C=O)C4CCC5(C)C(C6=CC(=O)OC6)CCC5(O)C4CCC3(O)C2)C(O)C(O)C1O (stereo not given)
target_system: 786-0 renal
TGI / µM: 3.2e-05

Entry O=[N+]([O-])c1ccc(C(Nc2ccccc2)c2ccc3cccnc3c2O)cc1 (stereo not given) has what TGI?
26.1

Entry COC(=O)C1=C(O)C(C(=O)OC)[C@]2(O)[C@H](C(=O)OC)[C@H]1C[C@@H](c1ccc([N+](=O)[O-])cc1)[C@H]2C(=O)OC (stereo not given in full) has what TGI?
31

Entry COc1ccc(-c2cc(C(O)C3CCCCN3)c3ccccc3n2)cc1 (stereo not given) has what TGI?
20.6

----------
- Tested on: MALME-3M melanoma
- assay_method_text: NCI tumour cell line growth inhibition, 48 h
Respond with Met for TGI values of 20 µM and above, Not met for values below.

molecule: C=C1C(=O)O[C@H]2[C@H]3O[C@@H](C[C@@H]12)[C@](C)(O)CC[C@@H]1O[C@@]1(C)CCC[C@H]3C
assigned_label: Met

molecule: Cc1nc(N)nc2ccccc12
assigned_label: Met

molecule: COC(=O)[C@@H]1CN(C(=O)c2ccccc2)C(=O)N1C(=O)OCc1ccccc1
assigned_label: Met

molecule: COc1cc(NC(=O)Nc2cnc(Nc3ccc(N4CCOCC4)cc3)nc2Oc2cccc(OC)c2)cc(OC)c1
assigned_label: Not met

molecule: C/C(Nc1ccc(Cl)cc1Cl)=C1/CCOC1=O
assigned_label: Met

Would you say Nc1ccc2c(c1)c(N)nn2C(=O)Nc1ccc(Cc2ccccc2)cc1 shows TGI at minimum 20 µM?
Met

Would you say c1ccc(-c2nnn(CCN3CCCCC3)n2)cc1 shows TGI at minimum 20 µM?
Met
